So I've got a bunch of compounds here, and I need their IC50 values.
Test system: HeLa
test.summary: Cytotoxicity against human HeLa cells by MTT assay
Type: functional, cell-based

Req: Quick check: IC50 of Cc1ccc(C(=O)CN2C(=O)S/C(=C\C3=C(Cl)c4cc(C)c(C)cc4CCC3)C2=O)cc1 ?
Resp: > 100 µM

Req: Quick one: IC50 of COc1ccc(C(=O)CN2C(=O)S/C(=C\C3=C(Cl)c4ccccc4CCC3)C2=O)cc1 ?
Resp: > 100 µM

Req: Fill in the blank: the reported IC50 of Cc1ccc(C(=O)CN2C(=O)S/C(=C\C3=C(Cl)c4ccccc4CCC3)C2=O)cc1 is ____.
Resp: 7.89 µM

Req: What IC50 value was documented for this compound, COc1ccc(C(=O)CN2C(=O)CSC2=O)cc1 ?
Resp: > 100 µM

Req: Item under review: COc1ccc(C(=O)CN2C(=O)S/C(=C\C3=C(Cl)c4cc(C)c(C)cc4CCC3)C2=O)cc1 . Reported IC50?
Resp: 17.9 µM

Req: Bench note: what IC50 did O=C(CN1C(=O)S/C(=C\C2=C(Cl)c3ccccc3CCC2)C1=O)c1ccc(Cl)cc1 show?
Resp: > 100 µM

Req: Sample Cc1cc2c(cc1C)C(Cl)=C(/C=C1\SC(=O)N(CC(=O)c3ccc(Cl)cc3)C1=O)CCC2 — what was its IC50?
Resp: > 100 µM

Req: Would you kindly share the measured IC50 for Cc1cc2c(cc1C)C(Cl)=C(/C=C1\SC(=O)N(CC(=O)c3ccc(Br)cc3)C1=O)CCC2 ?
Resp: > 100 µM

Req: Quick check: IC50 of O=C(CN1C(=O)CSC1=O)c1ccc(Cl)cc1 ?
Resp: > 100 µM

Req: Item Cc1cc2c(cc1C)C(Cl)=C(/C=C1\SC(=O)NC1=O)CCC2 has what recorded IC50?
Resp: 5.89 µM

Req: Name the reported IC50 value associated with the compound O=C1NC(=O)/C(=C/C2=C(Cl)c3ccccc3CCC2)S1
Resp: > 100 µM

Req: Which IC50 value is on record for O=C(CN1C(=O)CSC1=O)c1ccc(Br)cc1 ?
Resp: > 100 µM

----------
Test system: HeLa
test.summary: Cytotoxicity against human HeLa cells by MTT assay
Assay type: functional, cell-based
observed.property: pIC50
// returns pIC50 (minus log10 of molar concentration), number only

Req: Find pIC50 (HeLa) for the entry O=C(CN1C(=O)S/C(=C\C2=C(Cl)c3ccccc3CCC2)C1=O)c1ccccc1
Resp: 5.53

Req: Given the entry Cc1cc2c(cc1C)C(Cl)=C(/C=C1\SC(=O)N(CC(=O)c3ccccc3)C1=O)CCC2 , what pIC50 was observed with HeLa?
Resp: 5.10

----------
Please provide measured IC50 for the entries that follow.
Test system: HeLa
test.summary: Cytotoxicity against human HeLa cells by MTT assay
Format: functional, cell-based

Req: Recorded IC50 for O=C(CN1C(=O)CSC1=O)c1ccccc1 with HeLa, please?
Resp: > 100 µM

Req: Test system HeLa; read-out IC50; what value for Cc1ccc(C(=O)CN2C(=O)CSC2=O)cc1 ?
Resp: > 100 µM

Req: Provide value of IC50 for this record tested with HeLa: O=C(CN1C(=O)S/C(=C\C2=C(Cl)c3ccccc3CCC2)C1=O)c1ccc(Br)cc1
Resp: > 100 µM
